- Subject of test: UniProtKB B4URF0
- Sequence (B4URF0 whole entry): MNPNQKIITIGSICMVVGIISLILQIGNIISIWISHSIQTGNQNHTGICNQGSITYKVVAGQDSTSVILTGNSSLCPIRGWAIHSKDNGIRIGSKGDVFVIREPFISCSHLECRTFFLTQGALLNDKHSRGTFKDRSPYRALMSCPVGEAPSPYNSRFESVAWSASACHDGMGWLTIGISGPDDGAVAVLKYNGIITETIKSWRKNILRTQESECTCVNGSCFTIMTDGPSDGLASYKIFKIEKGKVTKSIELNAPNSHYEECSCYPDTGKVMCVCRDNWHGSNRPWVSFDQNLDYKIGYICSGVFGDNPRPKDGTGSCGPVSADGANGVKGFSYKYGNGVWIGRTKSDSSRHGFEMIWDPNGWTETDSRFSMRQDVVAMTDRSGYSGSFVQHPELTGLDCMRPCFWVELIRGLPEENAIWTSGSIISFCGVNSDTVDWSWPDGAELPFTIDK
- Measurement notes: Inhibition of recombinant Influenza A virus H1N1 neuraminidase
Parameter: pIC50
Reminder that pIC50 is minus the log10 of a molar concentration.

O=c1cc(O)cc(/C=C/c2ccc(O)c(O)c2)o1 ... 4.29
CC1=CC(=O)C2(O1)c1c(cc(/C=C/c3ccc(O)c(O)c3)oc1=O)OC2c1ccc(O)c(O)c1 (stereo not given) ... 4.70
CC1=CC(=O)[C@H](c2c(O)cc(/C=C/c3ccc(O)c(O)c3)oc2=O)[C@@H](c2ccc(O)c(O)c2)O1 ... 4.85
O=c1oc2cc(/C=C/c3ccc(O)c(O)c3)oc(=O)c2c2cc(O)c(O)cc12 ... 5.06

Turning now to a further record.
Report pIC50 for "O=c1cc(O)cc([C@H]2c3c(cc(/C=C/c4ccc(O)c(O)c4)oc3=O)O[C@@H]2c2ccc(O)c(O)c2)o1"
4.64
